test system: HCC 2998; assay: NCI tumour cell line growth inhibition, 48 h
Structures can show the parent of a compound that is named as a salt. Active and inactive are the calls of the source. Rule as the data show it: active = GI50 up to about 1.1 µM and inactive = higher.

{"molecule": "Cc1cc(C)c(C2=NOC(c3ccccc3)(c3cc(=O)n(-c4ccccc4)s3)O2)c(C)c1 (centres undefined)", "GI50": "32.5 µM (inactive)"}
{"molecule": "NCCS [CYSTEAMINE HYDROCHLORIDE]", "GI50": "> 100 µM (inactive)"}
{"molecule": "O=C1Sc2ccccc2C(=O)N2CSCC12 (centres undefined)", "GI50": "> 100 µM (inactive)"}
{"molecule": "N#Cc1c(Cl)cc(C#N)n2c1nc1ccccc12", "GI50": "21.2 µM (inactive)"}
{"molecule": "CC(=O)NC(CCC(=O)C=[N+]=[N-])C(=O)O (centres undefined)", "GI50": "> 100 µM (inactive)"}
{"molecule": "C1CN2CCO[SiH](O1)OCC2", "GI50": "> 100 µM (inactive)"}
{"molecule": "O=C(c1ccccc1)[C@H]1Nc2ccc(Cl)cc2[C@H]2c3ccccc3O[C@H]21", "GI50": "16.8 µM (inactive)"}
{"molecule": "Cc1nccc2c1[nH]c1cc(O)ccc12 [HARMOL HYDROCHLORIDE]", "GI50": "91 µM (inactive)"}
{"molecule": "O=C1C=C(Nc2ccc(Br)cc2)c2ccccc2/C1=N/O", "GI50": "3.84 µM (inactive)"}
{"molecule": "CC1(C)C(/C=N\\O)=[N+]([O-])C(C)(C)N1O", "GI50": "> 100 µM (inactive)"}
{"molecule": "CC(=O)Nc1ccc(S(=O)(=O)Nc2cnc3ccccc3n2)cc1", "GI50": "> 100 µM (inactive)"}
{"molecule": "COc1ccc(/C=C2/CSC/C(=C/c3ccc(OC)c(OC)c3)C2=O)cc1OC", "GI50": "2.57 µM (inactive)"}
{"molecule": "O=c1c2nc(-c3ccccc3)oc2n(-c2ccccc2)c(=O)n1-c1ccccc1", "GI50": "> 46.5 µM (inactive)"}
{"molecule": "C1=C[C@@H]2c3ccc4cnccc4c3NC[C@@H]2C1", "GI50": "> 100 µM (inactive)"}

====

test system: NCI-H226; experiment: NCI tumour cell line growth inhibition, 48 h
Activity calls are given as the source filed them. No stated cut-off is given here; in the data, active = GI50 up to about 1.1 µM and inactive = higher.
property label: GI50

{"compound": "CC1OC(c2ccc3c(c2O)C(=O)C2=C(C3=O)C3(O)C(=O)CC(C)(O)CC3(O)C=C2)CC(O)C1O (centres undefined)", "property label": "GI50", "obs value": "19.8 µM (inactive)"}
{"compound": "CCN(CC)CCNc1ccc2ncn3c4c(OC)ccc(O)c4c(=O)c1c23", "property label": "GI50", "obs value": "45.8 µM (inactive)"}
{"compound": "Oc1cc(-c2ccccc2)nc2cc(Cl)ccc12", "property label": "GI50", "obs value": "7.67 µM (inactive)"}
{"compound": "CC1=Nc2nc(Cl)cn2C(=O)C1(Cl)Cl", "property label": "GI50", "obs value": "> 10 µM (inactive)"}
{"compound": "CC(C)(C)OC(=O)Nc1cc(-c2ccccc2)co1", "property label": "GI50", "obs value": "> 100 µM (inactive)"}
{"compound": "COc1ccc(C(=C2C=CC=C2)c2ccc(OC)cc2)cc1", "property label": "GI50", "obs value": "50.5 µM (inactive)"}
{"compound": "CC1=C(CO)C(=O)O[C@@H]([C@@H](C)[C@H]2CC[C@H]3[C@@H]4C[C@H]5O[C@]56[C@@H](O)C=CC(=O)[C@]6(C)[C@H]4CC[C@]23C)C1 [WITHAFERIN A]", "property label": "GI50", "obs value": "1.3 µM (inactive)"}
{"compound": "BrCC[N+]12CC[N+](CCBr)(CC1)C2", "property label": "GI50", "obs value": "> 100 µM (inactive)"}
{"compound": "COc1ccc(C2=NN(C(=O)c3ccc(Cl)cc3)C(O)(c3cc(F)c(Cl)cc3Cl)C2)cc1 (centres undefined)", "property label": "GI50", "obs value": "> 100 µM (inactive)"}

Values from ChEMBL document CHEMBL1201862
